experimental target: Fyn (UniProt P06241)
Sequence (P06241 whole entry, looked up): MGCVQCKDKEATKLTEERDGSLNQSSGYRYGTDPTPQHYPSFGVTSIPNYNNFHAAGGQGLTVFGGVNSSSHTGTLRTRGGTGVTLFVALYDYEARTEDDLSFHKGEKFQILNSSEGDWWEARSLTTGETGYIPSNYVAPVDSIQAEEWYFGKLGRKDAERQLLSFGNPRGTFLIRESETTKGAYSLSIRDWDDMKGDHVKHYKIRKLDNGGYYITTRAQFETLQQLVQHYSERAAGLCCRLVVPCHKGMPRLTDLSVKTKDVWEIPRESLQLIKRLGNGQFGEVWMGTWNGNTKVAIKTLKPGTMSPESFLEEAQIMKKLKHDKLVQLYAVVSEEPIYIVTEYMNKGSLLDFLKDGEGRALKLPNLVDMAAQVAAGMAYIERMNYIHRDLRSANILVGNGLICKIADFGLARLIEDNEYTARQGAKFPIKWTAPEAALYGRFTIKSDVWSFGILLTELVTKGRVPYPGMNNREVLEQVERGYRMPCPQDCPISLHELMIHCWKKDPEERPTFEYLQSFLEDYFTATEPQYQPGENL
experiment notes: phosphorylation enrichment, bacterial display (enrichment ratio); higher = better substrate or ligand; peptides without Tyr show the background;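 also: 11-residue human phosphosite peptides and single-mutation variants displayed on the E. coli surface, counted by deep sequencing, each peptide's frequency after selection divided by its frequency in the unselected input library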;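 also: frequency after pTyr selection over input frequency; kinase dosed for 20-30% of maximal phosphorylation in three min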
A collection of sequences and their measured phosphorylation enrichment
measurement name: phosphorylation enrichment

- primary sequence: "QQLDEYQELLD [LMNA_Y359]"
  measurement name: "phosphorylation enrichment"
  reported value: 0.669
- primary sequence: "EEQKRYFNAMK [SCN5A_Y1494_K1493R_YF]"
  measurement name: "phosphorylation enrichment"
  reported value: 0.348
- primary sequence: "DVMDLYKTLRG [NR3C1_Y30_F29L]"
  measurement name: "phosphorylation enrichment"
  reported value: 0.437
- primary sequence: "PVVKLYATDGR [RP1_Y199]"
  measurement name: "phosphorylation enrichment"
  reported value: 0.601
- primary sequence: "KFMVGYEMLAQ [GALT_Y339]"
  measurement name: "phosphorylation enrichment"
  reported value: 0.417
- primary sequence: "KNILCYIQGGS [HYDIN_Y4610]"
  measurement name: "phosphorylation enrichment"
  reported value: 0.436
- primary sequence: "VAMDDYLKNVM [LRRK2_Y707]"
  measurement name: "phosphorylation enrichment"
  reported value: 0.449
- primary sequence: "HSQEDYFECFQ [ZIM2_Y411]"
  measurement name: "phosphorylation enrichment"
  reported value: 0.669
- primary sequence: "HNQDDYSFPSR [LDLR_Y845_G844D_YF]"
  measurement name: "phosphorylation enrichment"
  reported value: 0.737
- primary sequence: "NNIDYYKKTTN [FGFR2_Y657]"
  measurement name: "phosphorylation enrichment"
  reported value: 0.633
- primary sequence: "VSSPKYGSNDE [TMCC2_Y473_D476N]"
  measurement name: "phosphorylation enrichment"
  reported value: 0.445
- primary sequence: "VPVNGYQPVPA [ROR2_Y824]"
  measurement name: "phosphorylation enrichment"
  reported value: 0.382
- primary sequence: "IEEGTYGVVFR [CDK11B_Y449_YF]"
  measurement name: "phosphorylation enrichment"
  reported value: 8.86
- primary sequence: "MHLRQYELLGG [GNAS_Y391]"
  measurement name: "phosphorylation enrichment"
  reported value: 0.464
- primary sequence: "RRIHSYRSHLW [VHL_Y112_G114S]"
  measurement name: "phosphorylation enrichment"
  reported value: 0.833
- primary sequence: "KGKLIYLLRDS [NXPE1_Y350_G353R]"
  measurement name: "phosphorylation enrichment"
  reported value: 0.49
- primary sequence: "FEEDSYVERSQ [RET_Y905_K907E_YF]"
  measurement name: "phosphorylation enrichment"
  reported value: 0.504
- primary sequence: "VTSLKYSTSPY [BRIP1_Y916]"
  measurement name: "phosphorylation enrichment"
  reported value: 0.523
- primary sequence: "VMSMNYRVGAL [BCHE_Y174_V170M]"
  measurement name: "phosphorylation enrichment"
  reported value: 0.462
- primary sequence: "PLGKDYRKVEG [MAP1A_Y1909_A1912V]"
  measurement name: "phosphorylation enrichment"
  reported value: 0.74
- primary sequence: "QDLFLYQTHSE [PKHD1_Y255]"
  measurement name: "phosphorylation enrichment"
  reported value: 0.59
- primary sequence: "SSSPTYPDLPF [GLI3_Y168]"
  measurement name: "phosphorylation enrichment"
  reported value: 0.568
- primary sequence: "HVPEEYKPKQG [SAXO2_Y37]"
  measurement name: "phosphorylation enrichment"
  reported value: 0.449
- primary sequence: "LKVKAYRFSIS [LCT_Y974]"
  measurement name: "phosphorylation enrichment"
  reported value: 0.648
- primary sequence: "SQETFYRVSNM [ABCD1_Y181_Q178E_YF]"
  measurement name: "phosphorylation enrichment"
  reported value: 0.396
- primary sequence: "DYDHSYYFIAT [ESD_Y262_G257D]"
  measurement name: "phosphorylation enrichment"
  reported value: 1.48
- primary sequence: "RRFVFYFSFLL [PTEN_Y177_YF]"
  measurement name: "phosphorylation enrichment"
  reported value: 0.741
- primary sequence: "GQSKGYRPKLF [SIPA1L3_Y1376_YF]"
  measurement name: "phosphorylation enrichment"
  reported value: 0.363
- primary sequence: "ADEEYYEIIAA [FEStide_no-pY_2014]"
  measurement name: "phosphorylation enrichment"
  reported value: 2.17
- primary sequence: "IVAREYYSEAD [CAMK2A_Y106]"
  measurement name: "phosphorylation enrichment"
  reported value: 0.474
- primary sequence: "KDFNKYVAYIE [KDM4B_Y31]"
  measurement name: "phosphorylation enrichment"
  reported value: 0.365
- primary sequence: "SVVVPYEAPEV [TP53_Y220_P222A]"
  measurement name: "phosphorylation enrichment"
  reported value: 0.442
- primary sequence: "PTTKTYFPHFY [HBA1_Y43_D48Y]"
  measurement name: "phosphorylation enrichment"
  reported value: 0.884
- primary sequence: "GKFFQYDTWKQ [IGF2_Y116]"
  measurement name: "phosphorylation enrichment"
  reported value: 0.43
- primary sequence: "RALLNYIASKY [GSTA3_Y74_I71L]"
  measurement name: "phosphorylation enrichment"
  reported value: 0.678
- primary sequence: "NKYTTYLPWLP [C9orf24_Y126_R129W]"
  measurement name: "phosphorylation enrichment"
  reported value: 6.75
- primary sequence: "EKKDVYKTGEQ [CFH_Y1008_A1010T]"
  measurement name: "phosphorylation enrichment"
  reported value: 0.471
- primary sequence: "FEEDSYSHVMA [FDPS_Y388_I391V_YF]"
  measurement name: "phosphorylation enrichment"
  reported value: 0.511
- primary sequence: "KSNSDYVDVLP [SH2D1B_Y127_N122K]"
  measurement name: "phosphorylation enrichment"
  reported value: 0.419
- primary sequence: "PVFIKYLPEWT [PSEN1_Y240_L235P]"
  measurement name: "phosphorylation enrichment"
  reported value: 0.447
- primary sequence: "STAPSYGNPSS [CD19_Y378_G373S]"
  measurement name: "phosphorylation enrichment"
  reported value: 0.383
- primary sequence: "MSRDVYSTDCY [NTRK2_Y702_Y706C]"
  measurement name: "phosphorylation enrichment"
  reported value: 2.1
- primary sequence: "FGISGYLVDSV [MAP2K3_Y214]"
  measurement name: "phosphorylation enrichment"
  reported value: 0.467
- primary sequence: "APQYTYAQGGQ [FLNA_Y1763]"
  measurement name: "phosphorylation enrichment"
  reported value: 0.486
- primary sequence: "FLGRNYLETLM [DUS3L_Y610_D609N_YF]"
  measurement name: "phosphorylation enrichment"
  reported value: 0.454
- primary sequence: "REGKIYEYNQV [ZNF665_Y162_H157R]"
  measurement name: "phosphorylation enrichment"
  reported value: 1.41
- primary sequence: "DMLTLYVNTAA [SMCHD1_Y403_Q400L]"
  measurement name: "phosphorylation enrichment"
  reported value: 0.457
- primary sequence: "QRRFLYFFSFL [PTEN_Y176_V175L_YF]"
  measurement name: "phosphorylation enrichment"
  reported value: 0.795
- primary sequence: "VEFAKYGSLRG [RET_Y809_YF]"
  measurement name: "phosphorylation enrichment"
  reported value: 0.528
- primary sequence: "FSQETYFRVSN [ABCD1_Y180_Q178E_YF]"
  measurement name: "phosphorylation enrichment"
  reported value: 0.592
- primary sequence: "LMIEEYLTKEP [BAG3_Y457_L462P]"
  measurement name: "phosphorylation enrichment"
  reported value: 0.6
- primary sequence: "NNHGNYIVLLG [ETFDH_Y172_R175L]"
  measurement name: "phosphorylation enrichment"
  reported value: 0.458
- primary sequence: "QNTADYFDLFG [PTPN11_Y62_G60A_YF]"
  measurement name: "phosphorylation enrichment"
  reported value: 1.32
- primary sequence: "NTGLEYIKFTW [HRH1_Y386_D385E]"
  measurement name: "phosphorylation enrichment"
  reported value: 0.531
- primary sequence: "GGGFGYQKTKK [DDX18_Y643]"
  measurement name: "phosphorylation enrichment"
  reported value: 0.315
- primary sequence: "CIILLYIFLKN [STXBP1_Y411_R406C]"
  measurement name: "phosphorylation enrichment"
  reported value: 0.378
- primary sequence: "SSDKVYAHQMD [MLH1_Y379_V384D]"
  measurement name: "phosphorylation enrichment"
  reported value: 0.493
